Consider the following compounds and their measured % Inhibition (3H-benzodiazepine binding) readings.
test system: Brain-Specific Receptors of Rats (3H-benzodiazepine binding); assay: Inhibition of the binding of 3H-benzodiazepine to brain-specific receptors of rats; parameters: species or system rat (Wistar strain, whole cortex); settings: rat cortex P2 fraction, 3H-diazepam 1.5 nM or 3H-flunitrazepam 1.0 nM

smi: COc1ccc(Cl)cc1NC(=O)CN1CCN(CC(=O)N2CC=C(c3cccc(C(F)(F)F)c3)n3ncc(C#N)c32)CC1
assaySystem: Brain-Specific Receptors of Rats (3H-benzodiazepine binding)
unitAnnotation: %
% Inhibition (3H-benzodiazepine binding): 15

smi: CC(C)NC(=O)CN1CCN(CC(=O)N2CC=C(c3cccc(C(F)(F)F)c3)n3ncc(C#N)c32)CC1
assaySystem: Brain-Specific Receptors of Rats (3H-benzodiazepine binding)
unitAnnotation: %
% Inhibition (3H-benzodiazepine binding): 41

smi: CCOC(=O)N1CCN(CC(=O)N2CC=C(c3cccc(C(F)(F)F)c3)n3ncc(C#N)c32)CC1
assaySystem: Brain-Specific Receptors of Rats (3H-benzodiazepine binding)
unitAnnotation: %
% Inhibition (3H-benzodiazepine binding): 45

smi: N#Cc1cnn2c1N(C(=O)CN1CCN(CC(=O)N3CCOCC3)CC1)CC=C2c1cccc(C(F)(F)F)c1
assaySystem: Brain-Specific Receptors of Rats (3H-benzodiazepine binding)
unitAnnotation: %
% Inhibition (3H-benzodiazepine binding): 41

---

test system: mice (hypoxic environment); test: Hypoxic survival test; format: in vivo, mouse (Royal Hart); settings: Mus musculus, ip, 5 min, 10 mg/kg, intraperitoneal, 10% oxygen, 5 minutes; read-out: % Survivors
Counter-ions that a name gives are not always drawn.
Rule: responders at 10 mg/kg under 30% gives Not met, otherwise Met.

compound: N#Cc1cnn2c1N(C(=O)CN1CCN(Cc3ccccc3C(F)(F)F)CC1)CC=C2c1ccc(Cl)cc1 [Example 59]
class: Met

compound: N#Cc1cnn2c1N(C(=O)CN1CCN(Cc3ccccc3)CC1)CC=C2c1cccc(C(F)(F)F)c1 [Example 17]
class: Met

compound: N#Cc1cnn2c1N(C(=O)CN1CCN(Cc3c(Cl)cccc3Cl)CC1)CCC2c1cccc(C(F)(F)F)c1 (stereo not shown) [Example 54]
class: Not met

compound: N#Cc1cnn2c1N(C(=O)CN1CCN(C3CCC3)CC1)CC=C2c1cccc(C(F)(F)F)c1 [Example 91, dihydrochloride]
class: Met

compound: COc1cccc(CN2CCN(CC(=O)N3CC=C(c4ccccc4)n4ncc(C#N)c43)CC2)c1 [Example 150, dihydrochloride]
class: Met

compound: NC(=O)c1cnn2c1N(C(=O)CN1CCN(Cc3ccccc3)CC1)CC=C2c1cccc(C(F)(F)F)c1 [Example 75]
class: Not met

compound: N#Cc1cnn2c1N(C(=O)CN1CCN(Cc3ccccc3)CC1)CC=C2c1ccc(Cl)cc1 [Example 58]
class: Met

compound: N#Cc1cnn2c1N(C(=O)CN1CCN(CCCOc3ccccc3)CC1)CCC2c1cccc(C(F)(F)F)c1 (stereo not shown) [Example 57]
class: Not met

compound: O=C(CN1CCN(Cc2ccccc2)CC1)N1CC=C(c2cccc(C(F)(F)F)c2)n2ncc(Br)c21 [Example 154, dihydrochloride]
class: Not met

---

biological target: human platelet membranes (3H-imipramine receptor) (Homo sapiens, UniProt P31645); construct: Fresh human platelet concentrates (less than 48 hours old) were obtained from the New York Blood Center; tissue New York Blood Center; host or cells: human blood platelets, membranes; experiment: 3H-imipramine binding to human platelet membranes
Sequence (P31645 whole entry): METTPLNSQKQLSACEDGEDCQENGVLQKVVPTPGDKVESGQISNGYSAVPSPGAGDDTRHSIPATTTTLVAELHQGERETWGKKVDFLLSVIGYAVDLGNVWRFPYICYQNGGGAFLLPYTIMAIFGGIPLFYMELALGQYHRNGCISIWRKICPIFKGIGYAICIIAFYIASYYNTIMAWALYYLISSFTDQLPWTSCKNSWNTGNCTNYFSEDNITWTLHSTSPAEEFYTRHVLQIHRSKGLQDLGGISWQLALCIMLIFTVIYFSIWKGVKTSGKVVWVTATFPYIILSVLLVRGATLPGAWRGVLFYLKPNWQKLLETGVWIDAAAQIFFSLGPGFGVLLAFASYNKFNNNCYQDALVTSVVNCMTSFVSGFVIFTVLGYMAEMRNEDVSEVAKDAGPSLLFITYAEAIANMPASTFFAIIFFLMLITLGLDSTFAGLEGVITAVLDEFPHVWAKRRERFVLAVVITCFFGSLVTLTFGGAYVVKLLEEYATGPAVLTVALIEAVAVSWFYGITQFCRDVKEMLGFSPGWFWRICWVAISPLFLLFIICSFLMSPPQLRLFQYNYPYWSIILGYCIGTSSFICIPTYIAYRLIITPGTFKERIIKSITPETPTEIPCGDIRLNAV
Structures can show the parent of a compound that is named as a salt.
Consider the following compounds and their measured inhibition at 10 µM readings.
readoutLabel: inhibition at 10 µM (%)

compound: N#Cc1cnn2c1N(C(=O)CN1CCN(CCCOc3ccccc3)CC1)CCC2c1cccc(C(F)(F)F)c1 (stereo not shown)
assayValue: 57
--
compound: N#Cc1cnn2c1N(C(=O)CCN1CCN(Cc3ccccc3)CC1)CC=C2c1cc(Cl)ccc1Cl
assayValue: 79
--
compound: CN(C)CCN1CCN(CC(=O)N2CC=C(c3cccc(C(F)(F)F)c3)n3ncc(C#N)c32)CC1 [Example 97, dihydrochloride]
assayValue: 72
--
compound: N#Cc1cnn2c1N(C(=O)CCN1CCN(Cc3ccccc3)CC1)CC=C2c1cccc(C(F)(F)F)c1
assayValue: 80
